# Tested on: Staphylococcus aureus
# procedure.details: Antimicrobial activity against methicillin-resistant Staphylococcus aureus isolate 1110301981 by broth dilution method
# Assay type: functional
endpoint.label: MIC (µg/mL)
Output spec: scalar in µg/mL, unitless text.

## Task Query (compound): NCCC[C@@H]1NC(=O)[C@H](CC23CC4CC(CC(C4)C2)C3)NC(=O)[C@H](CCCN)NC(=O)[C@H](C23CC4CC(CC(C4)C2)C3)NC(=O)[C@H](CCCN)NC(=O)[C@@H]2CCCN2C(=O)[C@@H](Cc2ccccc2)NC(=O)[C@H](CCCN)NC(=O)[C@H](CC23CC4CC(CC(C4)C2)C3)NC(=O)[C@H](CCCN)NC(=O)[C@H](C23CC4CC(CC(C4)C2)C3)NC(=O)[C@H](CCCN)NC(=O)[C@@H]2CCCN2C(=O)[C@@H](Cc2ccccc2)NC1=O ; field requested: MIC
## Result 32

* * *

I'd be grateful if you could share measured MIC for these entries.
# Test system: Staphylococcus aureus
# procedure.details: Antimicrobial activity against methicillin-resistant Staphylococcus aureus isolate 1110301981 by broth dilution method
# Format: functional
Where a SMILES comes first, the peptide text is derived from it. [ ]: non-standard residue; d: D form. Orn = NCCC[C@H](N)C(=O)O
# number only, unit µg/mL dropped from output

## Task Look up MIC for this compound: CC(C)[C@@H]1NC(=O)[C@H](CCCN)NC(=O)[C@@H]2CCCN2C(=O)[C@@H](Cc2ccccc2)NC(=O)[C@H](CCCN)NC(=O)[C@H](CC23CC4CC(CC(C4)C2)C3)NC(=O)[C@H](CCCN)NC(=O)[C@H](C23CC4CC(CC(C4)C2)C3)NC(=O)[C@H](CCCN)NC(=O)[C@@H]2CCCN2C(=O)[C@@H](Cc2ccccc2)NC(=O)[C@H](CCCN)NC(=O)[C@H](CC23CC4CC(CC(C4)C2)C3)NC(=O)[C@H](CCCN)NC1=O
## Result 16

## Task For the compound shown here, CC(C)C[C@@H]1NC(=O)[C@H](CCCN)NC(=O)[C@H](C(C)C)NC(=O)[C@@H]2CCCN2C(=O)[C@@H](Cc2ccccc2)NC(=O)[C@H](CC(C)C)NC(=O)[C@H](CCCN)NC(=O)[C@H](C(C)C)NC(=O)[C@@H]2CCCN2C(=O)[C@@H](Cc2ccccc2)NC1=O [GRAMICIDIN S] (cyclo(L[dF]PV[Orn]L[dF]PV[Orn])) , give the reported MIC.
## Result 16

## Task Fill in: MIC of CC(C)C[C@@H]1NC(=O)[C@H](CCCN)NC(=O)[C@H](C(C)C)NC(=O)[C@H](CCCN)NC(=O)[C@@H]2CCCN2C(=O)[C@@H](Cc2ccccc2)NC(=O)[C@H](CCCN)NC(=O)[C@H](CC(C)C)NC(=O)[C@H](CCCN)NC(=O)[C@H](C(C)C)NC(=O)[C@H](CCCN)NC(=O)[C@@H]2CCCN2C(=O)[C@@H](Cc2ccccc2)NC(=O)[C@H](CCCN)NC1=O is ___
## Result 64

* * *

# Test system: Staphylococcus epidermidis
# procedure.details: Antimicrobial activity against Staphylococcus epidermidis ATCC 12228 by broth dilution method
# Format: functional
Where a SMILES comes first, the peptide text is derived from it. [ ]: non-standard residue; d: D form. Gly(1-adamantyl) = N[C@H](C(=O)O)C12CC3CC(CC(C3)C1)C2; Orn = NCCC[C@H](N)C(=O)O
endpoint.label: MIC (µg/mL)
Give the quantity in µg/mL, number only.

## Task // query MIC value for entry NCCC[C@@H]1NC(=O)[C@H](C23CC4CC(CC(C4)C2)C3)NC(=O)[C@H](CCCN)NC(=O)[C@@H]2CCCN2C(=O)[C@@H](Cc2ccccc2)NC(=O)[C@H](CCCN)NC(=O)[C@H](C23CC4CC(CC(C4)C2)C3)NC(=O)[C@H](CCCN)NC(=O)[C@@H]2CCCN2C(=O)[C@@H](Cc2ccccc2)NC1=O (cyclo([Orn][dF]P[Orn][Gly(1-adamantyl)][Orn][dF]P[Orn][Gly(1-adamantyl)]))
## Result 4

## Task Give the measured MIC of CC(C)C[C@@H]1NC(=O)[C@H](CCCN)NC(=O)[C@H](C(C)C)NC(=O)[C@@H]2CCCN2C(=O)[C@@H](Cc2ccccc2)NC(=O)[C@H](CC(C)C)NC(=O)[C@H](CCCN)NC(=O)[C@H](C(C)C)NC(=O)[C@H](CCCN)NC(=O)[C@H](CC(C)C)NC(=O)[C@@H]2CCCN2C(=O)[C@@H](Cc2ccccc2)NC(=O)[C@H](C(C)C)NC(=O)[C@H](CCCN)NC1=O (cyclo(L[Orn]V[Orn]L[dF]PV[Orn]L[Orn]V[dF]P)) .
## Result 8

## Task Can you look up the measured MIC of CC(C)C[C@@H]1NC(=O)[C@H](CCCN)NC(=O)[C@H](C23CC4CC(CC(C4)C2)C3)NC(=O)[C@H](CCCN)NC(=O)[C@@H]2CCCN2C(=O)[C@@H](Cc2ccccc2)NC(=O)[C@H](CCCN)NC(=O)[C@H](CC23CC4CC(CC(C4)C2)C3)NC(=O)[C@H](CCCN)NC(=O)[C@H](C(C)C)NC(=O)[C@H](CCCN)NC(=O)[C@@H]2CCCN2C(=O)[C@@H](Cc2ccccc2)NC(=O)[C@H](CCCN)NC1=O for me?
## Result 4

## Task Sample CC(C)C[C@@H]1NC(=O)[C@H](CCCN)NC(=O)[C@H](C23CC4CC(CC(C4)C2)C3)NC(=O)[C@H](CCCN)NC(=O)[C@@H]2CCCN2C(=O)[C@@H](Cc2ccccc2)NC(=O)[C@H](CCCN)NC(=O)[C@H](CC(C)C)NC(=O)[C@H](CCCN)NC(=O)[C@H](C23CC4CC(CC(C4)C2)C3)NC(=O)[C@H](CCCN)NC(=O)[C@@H]2CCCN2C(=O)[C@@H](Cc2ccccc2)NC(=O)[C@H](CCCN)NC1=O — what was its MIC?
## Result 8

## Task Tell me the measured MIC of NCCC[C@@H]1NC(=O)[C@H](CC23CC4CC(CC(C4)C2)C3)NC(=O)[C@H](CCCN)NC(=O)[C@H](C23CC4CC(CC(C4)C2)C3)NC(=O)[C@H](CCCN)NC(=O)[C@@H]2CCCN2C(=O)[C@@H](Cc2ccccc2)NC(=O)[C@H](CCCN)NC(=O)[C@H](CC23CC4CC(CC(C4)C2)C3)NC(=O)[C@H](CCCN)NC(=O)[C@H](C23CC4CC(CC(C4)C2)C3)NC(=O)[C@H](CCCN)NC(=O)[C@@H]2CCCN2C(=O)[C@@H](Cc2ccccc2)NC1=O , please.
## Result 32

* * *

# procedure.details: Therapeutic index, concentration required to achieve 100% hemolysis in erythrocyte to MIC for Staphylococcus aureus ATCC 29213
# stated.conditions: erythrocytes; read-out: Ratio
Please respond with reported selectivity ratio for every item in the list.

## Task Param item = NCCC[C@@H]1NC(=O)[C@H](CC23CC4CC(CC(C4)C2)C3)NC(=O)[C@H](CCCN)NC(=O)[C@H](C23CC4CC(CC(C4)C2)C3)NC(=O)[C@H](CCCN)NC(=O)[C@@H]2CCCN2C(=O)[C@@H](Cc2ccccc2)NC(=O)[C@H](CCCN)NC(=O)[C@H](CC23CC4CC(CC(C4)C2)C3)NC(=O)[C@H](CCCN)NC(=O)[C@H](C23CC4CC(CC(C4)C2)C3)NC(=O)[C@H](CCCN)NC(=O)[C@@H]2CCCN2C(=O)[C@@H](Cc2ccccc2)NC1=O ; retrieve measured selectivity ratio.
## Result 0.1

## Task Endpoint output: selectivity ratio of CC(C)C[C@@H]1NC(=O)[C@H](CCCN)NC(=O)[C@H](C(C)C)NC(=O)[C@H](CCCN)NC(=O)[C@@H]2CCCN2C(=O)[C@@H](Cc2ccccc2)NC(=O)[C@H](CCCN)NC(=O)[C@H](CC(C)C)NC(=O)[C@H](CCCN)NC(=O)[C@H](C(C)C)NC(=O)[C@H](CCCN)NC(=O)[C@@H]2CCCN2C(=O)[C@@H](Cc2ccccc2)NC(=O)[C@H](CCCN)NC1=O . Value?
## Result 11.7

## Task Can you share its selectivity ratio? I mean this molecule: CC(C)C[C@@H]1NC(=O)[C@H](CCCN)NC(=O)[C@H](C23CC4CC(CC(C4)C2)C3)NC(=O)[C@H](CCCN)NC(=O)[C@@H]2CCCN2C(=O)[C@@H](Cc2ccccc2)NC(=O)[C@H](CCCN)NC(=O)[C@H](CC(C)C)NC(=O)[C@H](CCCN)NC(=O)[C@H](C23CC4CC(CC(C4)C2)C3)NC(=O)[C@H](CCCN)NC(=O)[C@@H]2CCCN2C(=O)[C@@H](Cc2ccccc2)NC(=O)[C@H](CCCN)NC1=O
## Result 3.9

## Task Return reported selectivity ratio; argument: CC(C)[C@@H]1NC(=O)[C@H](CCCN)NC(=O)[C@@H]2CCCN2C(=O)[C@@H](Cc2ccccc2)NC(=O)[C@H](CCCN)NC(=O)[C@H](CC23CC4CC(CC(C4)C2)C3)NC(=O)[C@H](CCCN)NC(=O)[C@H](C23CC4CC(CC(C4)C2)C3)NC(=O)[C@H](CCCN)NC(=O)[C@@H]2CCCN2C(=O)[C@@H](Cc2ccccc2)NC(=O)[C@H](CCCN)NC(=O)[C@H](CC23CC4CC(CC(C4)C2)C3)NC(=O)[C@H](CCCN)NC1=O
## Result 1
